Reference for the values: patent US8580806B2

The following compounds are shown together with reported % moisture gain values.
Assay: Hygroscopicity by TGA after one day at ambient temperature and 93% relative humidity
Format: physicochemical
Details: ambient temperature
Use % as the unit, but write only the number.

Consider the following illustrative entries.
{"columns": ["compound", "endpoint unit", "% moisture gain"],
 "data": [
  ["CCS(=O)(=O)O.Cc1cn(-c2cc(NC(=O)c3ccc(C)c(Nc4nccc(-c5cccnc5)n4)c3)cc(C(F)(F)F)c2)cn1 [Ethane sulfonate]", "%", 1.11],
  ["Cc1cn(-c2cc(NC(=O)c3ccc(C)c(Nc4nccc(-c5cccnc5)n4)c3)cc(C(F)(F)F)c2)cn1 [p-Toluene sulfonate]", "%", 1.02],
  ["Cc1cn(-c2cc(NC(=O)c3ccc(C)c(Nc4nccc(-c5cccnc5)n4)c3)cc(C(F)(F)F)c2)cn1 [Benzene sulfonate]", "%", 0.11]
]}

Query string: For the compound Cc1cn(-c2cc(NC(=O)c3ccc(C)c(Nc4nccc(-c5cccnc5)n4)c3)cc(C(F)(F)F)c2)cn1.O=S(=O)(O)O [Sulfate (form B)] , what % moisture gain is on record?
Result string: 0.22
